biological target: 5-hydroxytryptamine receptor 1D (Sus scrofa); experiment: Displacement of radioligand [3H]5-HT binding to 5-hydroxytryptamine 1D receptor in pig caudate membrane
Sequence (P79400 whole entry): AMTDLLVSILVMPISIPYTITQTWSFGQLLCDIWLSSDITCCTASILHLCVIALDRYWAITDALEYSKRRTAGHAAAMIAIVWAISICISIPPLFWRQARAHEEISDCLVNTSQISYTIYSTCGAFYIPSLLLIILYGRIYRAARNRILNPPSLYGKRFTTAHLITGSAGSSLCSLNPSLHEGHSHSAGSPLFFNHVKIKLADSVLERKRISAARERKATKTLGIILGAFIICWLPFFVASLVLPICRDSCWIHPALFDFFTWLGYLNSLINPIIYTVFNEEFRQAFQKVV
pIC50: −log10 of the molar value.
Quantity Measured: pIC50

>>> print(df.to_string())
                                   compound  observed_measurement
0  COc1ccc(Cc2noc(-c3ccc4[nH]cc(CCN)c4c3)n2)cc1                  9.10
1  CC(=O)Nc1ccc(Cc2noc(Cc3ccc4[nH]cc(CCN)c4c3)n2)cc1                  8.60
2      CN(C)CCc1c[nH]c2ccc(Cc3nc(N)ns3)cc12                  8.70
3  NCCc1c[nH]c2ccc(-c3nc(-c4ccccc4)no3)cc12                  7.10
4  NCCc1c[nH]c2ccc(Cc3nc(-c4ccccc4)no3)cc12                  7.70
5          Cc1noc(Cc2ccc3[nH]cc(CCN)c3c2)n1                  7.50
6      NCCc1c[nH]c2ccc(-c3nc(C4CC4)no3)cc12                  8.10
7      CN(C)CCc1c[nH]c2ccc(Cc3nc(N)no3)cc12                  7.60
8  CS(=O)(=O)Nc1ccc(Cc2noc(-c3ccc4[nH]cc(CCN)c4c3)n2)cc1 [L-694247]                  9.50
9  CNC(=O)c1ccc(-c2noc(-c3ccc4[nH]cc(CCN)c4c3)n2)cc1                  9.10
